testedOn: T1, human TL1A (Fitzgerald #30R-AT070) (human, UniProt O95150 72-251, limits assumed)
T1 construct: Coated on the ELISA plate at 1 ug/mL; also called TNFSF15
T1 sequence (looked up): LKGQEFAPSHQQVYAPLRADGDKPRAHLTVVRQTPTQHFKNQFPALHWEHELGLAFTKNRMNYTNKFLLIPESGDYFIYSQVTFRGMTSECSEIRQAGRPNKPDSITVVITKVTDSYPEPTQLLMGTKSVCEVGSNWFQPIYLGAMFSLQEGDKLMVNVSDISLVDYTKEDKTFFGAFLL
assayInfo: ELISA titration, coated human TL1A, culture supernatant
readoutType: Kd (nM)
The reply should be a number in nM, with the unit left off.

Give the measured Kd of A142 (antibody, human IgG1, V domains shown, human IgG1/kappa (pFuse vectors), culture supernatant) VH: QVQLVQSGAEVKKPGASVKVSCKASGFDIQDTYMHWVRQRPGQGLEWMGRIDPASGHTKYDPKFQVRVTITRDTSTSTAYLELSSLRSEDTAVYYCARSGGLPDVWGQGTTVTVSS VL: EIVLTQSPGTLSLSPGERATLSCRASSSVSYMYWYQQKPGQAPRLLIYATSNLASGIPDRFSGSGSGTDFTLTISRLEPEDFAVYYCQQWEGNPRTFGGGTKLEIK .
0.126

Recorded Kd for A41 (antibody, human IgG1, V domains shown, human IgG1/kappa (pFuse vectors), culture supernatant) VH: QVQLVQSGAEVKKPGASVKVSCKASGFDIQDTYMHWVKQRPGQGLEWIGRIDPASGHTKYDPKFQVRVTITTDTSTSTAYLELSSLRSEDTAVYYCARSGGLPDVWGQGTTVTVSS VL: EIVLTQSPGTLSASPGERATMSCRASSSVSYMYWYQQKPGQAPRPWIYATSNLASGVPDRFSGSGSGTDYTLTISRVEPEDFAVYYCQQWSGNPRTFGGGTKLEIK , please?
0.016
